- TARGET OR SYSTEM: full-length human PLD2 (Homo sapiens (Human), UniProt O14939)
- Sequence (O14939 whole entry): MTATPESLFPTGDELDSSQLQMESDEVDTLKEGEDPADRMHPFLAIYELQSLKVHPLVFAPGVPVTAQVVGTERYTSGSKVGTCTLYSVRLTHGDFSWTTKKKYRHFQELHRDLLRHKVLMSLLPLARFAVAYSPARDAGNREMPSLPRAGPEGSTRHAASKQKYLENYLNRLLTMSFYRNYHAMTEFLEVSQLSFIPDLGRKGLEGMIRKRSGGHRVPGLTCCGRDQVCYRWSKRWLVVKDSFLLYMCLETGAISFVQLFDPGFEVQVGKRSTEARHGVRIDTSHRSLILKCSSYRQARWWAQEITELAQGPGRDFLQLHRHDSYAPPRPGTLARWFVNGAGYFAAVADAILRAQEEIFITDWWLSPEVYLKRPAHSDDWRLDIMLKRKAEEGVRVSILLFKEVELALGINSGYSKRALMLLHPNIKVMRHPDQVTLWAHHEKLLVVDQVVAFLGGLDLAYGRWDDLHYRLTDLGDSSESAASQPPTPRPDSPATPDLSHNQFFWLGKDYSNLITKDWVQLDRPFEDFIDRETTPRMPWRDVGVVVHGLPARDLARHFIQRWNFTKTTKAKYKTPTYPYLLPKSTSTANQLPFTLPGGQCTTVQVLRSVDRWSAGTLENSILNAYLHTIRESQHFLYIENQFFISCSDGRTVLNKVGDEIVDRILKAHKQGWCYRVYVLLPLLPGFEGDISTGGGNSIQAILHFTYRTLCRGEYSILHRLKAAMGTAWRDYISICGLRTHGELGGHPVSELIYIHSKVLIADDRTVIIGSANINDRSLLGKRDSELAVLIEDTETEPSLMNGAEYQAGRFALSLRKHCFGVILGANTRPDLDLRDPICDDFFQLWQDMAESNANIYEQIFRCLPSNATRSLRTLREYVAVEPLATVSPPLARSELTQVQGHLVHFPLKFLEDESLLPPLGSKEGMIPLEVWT
- PROCEDURE SUMMARY: Evaluation of human PLD2 enzyme inhibitory activity (Amplex Red / choline oxidase fluorescence)
- Type: biochemical
- MEASUREMENT CONTEXT: full-length human PLD2 enzyme; read-out: PLD2 IC50
pIC50: −log10 of the molar value.
PROPERTY MEASURED: pIC50

compound="CNC(=O)C(=O)N[C@@H](C)CN1CCC2(CC1)OC(=O)NN=C2c1cccc(F)c1Br [Example 2-030]" property_measured=pIC50 qualifying_sign== value_reported=7.74
compound="C[C@@H](C[C@H]1CC[C@]2(CC1)OC(=O)NN=C2c1ccccc1OC(F)(F)F)NC(=O)c1cc(Cl)no1 [Example 111]" property_measured=pIC50 qualifying_sign== value_reported=7.68
compound="[2H]C([2H])([2H])NC(=O)C(=O)NC(C)CN1CCC2(CC1)OC(=O)NN=C2c1cc(C#N)ccc1Cl (stereo not shown) [Example 2-008]" property_measured=pIC50 qualifying_sign== value_reported=7.96
compound="Cc1cc(F)ccc1C1=NNC(=O)O[C@]12CC[C@@H](C[C@H](C)NC(=O)N1Cc3ccccc3C1)CC2 [Example 101]" property_measured=pIC50 qualifying_sign=> value_reported=8.00

====

- TARGET OR SYSTEM: full-length human PLD2 (Homo sapiens (Human), UniProt O14939)
- PROCEDURE SUMMARY: Evaluation of human PLD2 enzyme inhibitory activity (Amplex Red / choline oxidase fluorescence)
- Type: biochemical
- MEASUREMENT CONTEXT: full-length human PLD2 enzyme; read-out: PLD2 IC50
PROPERTY MEASURED: IC50 (nM)

molecule=CC(C)=CC(=O)N[C@@H](C)CN1CCC2(CC1)OC(=O)NN=C2c1cc(C#N)ccc1Br unit_info=nM qualifying_sign== value_reported=388
molecule=Cc1cc(C(=O)N[C@@H](C)C[C@H]2CC[C@]3(CC2)OC(=O)NN=C3c2cnc(Cl)cc2N2CCOCC2)[nH]n1 unit_info=nM qualifying_sign== value_reported=203
molecule=CNC(=O)C(=O)N[C@@H](C)C[C@H]1CC[C@]2(CC1)OC(=O)NN=C2c1cnc(N2C[C@H]3C[C@@H]2CO3)cc1C unit_info=nM qualifying_sign=< value_reported=10
molecule=C[C@@H](C[C@H]1CC[C@]2(CC1)OC(=O)NN=C2c1ccccc1SC(F)(F)F)NC(=O)c1cnn(C)c1 unit_info=nM qualifying_sign== value_reported=16
molecule=C[C@@H](CN1CCC2(CC1)OC(=O)NN=C2c1ccc(F)cc1Cl)NC(=O)c1cc(Cl)no1 unit_info=nM qualifying_sign== value_reported=13
molecule=CNC(=O)C(=O)N[C@@H](C)C[C@H]1CC[C@]2(CC1)OC(=O)NN=C2c1ccc(OCC(F)F)cc1Br unit_info=nM qualifying_sign=< value_reported=10
molecule=C[C@@H](C[C@H]1CC[C@]2(CC1)OC(=O)NN=C2c1ccc(OC(F)(F)F)cc1Br)NC(=O)c1cc2ccccc2o1 unit_info=nM qualifying_sign=< value_reported=10
molecule=CNC(=O)C(=O)N[C@@H](C)C[C@H]1CC[C@]2(CC1)OC(=O)NN=C2c1ncccc1C unit_info=nM qualifying_sign== value_reported=32
molecule=C[C@@H](CN1CCC2(CC1)OC(=O)NN=C2c1cc(C#N)ccc1Br)NC(=O)c1cncn1C unit_info=nM qualifying_sign== value_reported=245
molecule=CNC(=O)C(=O)N[C@@H](C)C[C@H]1CC[C@]2(CC1)OC(=O)NN=C2c1cccnc1C unit_info=nM qualifying_sign== value_reported=666
molecule="CNC(=O)C(=O)N[C@@H](C)C(C#N)N1CCC2(CC1)OC(=O)NN=C2c1ccc(F)cc1Br (mixture of isomers)" unit_info=nM qualifying_sign== value_reported=1260
molecule=CNC(=O)C(=O)N[C@@H](C)C[C@H]1CC[C@]2(CC1)OC(=O)NN=C2c1cc(N2CCOCC2)ccc1C unit_info=nM qualifying_sign=< value_reported=10
molecule=COc1cc(C)c(C2=NNC(=O)O[C@]23CC[C@@H](C[C@H](C)NC(=O)N2CCc4nocc4C2)CC3)cn1 unit_info=nM qualifying_sign=< value_reported=10
molecule=CNC(=O)C(=O)N[C@@H](C)C[C@H]1CC[C@]2(CC1)OC(=O)NN=C2c1cc(Cl)ccc1Cl unit_info=nM qualifying_sign=< value_reported=10
molecule=C[C@@H](CN1CCC2(CC1)OC(=O)NN=C2c1ccc(F)cc1Cl)NC(=O)c1cc2cc(F)ccc2o1 unit_info=nM qualifying_sign== value_reported=15
molecule=Cc1ccncc1C1=NNC(=O)O[C@]12CC[C@@H](C[C@H](C)NC(=O)c1cc3ccccc3o1)CC2 unit_info=nM qualifying_sign=< value_reported=10
molecule=Cc1cc(C(=O)N[C@@H](C)CN2CCC3(CC2)OC(=O)NN=C3c2cccc(C(F)(F)F)c2Br)[nH]n1 unit_info=nM qualifying_sign=< value_reported=10
molecule=Cc1cc(C(=O)N[C@@H](C)C[C@]2(O)CC[C@]3(CC2)OC(=O)NN=C3c2ccc(F)cc2Br)[nH]n1 unit_info=nM qualifying_sign== value_reported=1580
molecule="Cc1cc(C(=O)N[C@@H](C)CC2CC[C@]3(C[C@@H]2F)OC(=O)NN=C3c2ccc(F)cc2Br)[nH]n1 (stereo partly shown)" unit_info=nM qualifying_sign=< value_reported=10
molecule=C[C@@H](C[C@H]1CC[C@]2(CC1)OC(=O)NN=C2c1ccc(F)cc1Br)NC(=O)C(F)F unit_info=nM qualifying_sign== value_reported=429
molecule=C[C@@H](C[C@H]1CC[C@]2(CC1)OC(=O)NN=C2c1ccc(F)cc1Cl)NC(=O)C(=O)NC1CC1 unit_info=nM qualifying_sign== value_reported=20
molecule=C[C@@H](CN1CCC2(CC1)OC(=O)NN=C2c1ccc(F)cc1Br)NC(=O)c1cc2cc(F)ccc2[nH]1 unit_info=nM qualifying_sign=< value_reported=10
molecule=CNC(=O)C(=O)N[C@@H](C)C[C@H]1CC[C@]2(CC1)OC(=O)NN=C2c1cc(F)ccc1Br unit_info=nM qualifying_sign=< value_reported=10
molecule=C[C@@H](C[C@H]1CC[C@]2(CC1)OC(=O)NN=C2c1ccc(C#N)cc1Br)NC(=O)N1CCn2nncc2C1 unit_info=nM qualifying_sign=< value_reported=10
molecule=CNC(=O)C(=O)NCC[C@H]1CC[C@]2(CC1)OC(=O)NN=C2c1ccc(F)cc1Br unit_info=nM qualifying_sign=< value_reported=10
molecule=Cc1cc(C(=O)N[C@@H](C)C[C@H]2CC[C@]3(CC2)OC(=O)NN=C3c2cccc3c2OCC3)[nH]n1 unit_info=nM qualifying_sign== value_reported=139
molecule=C[C@@H](C[C@H]1CC[C@]2(CC1)OC(=O)NN=C2c1ccc(F)cc1Br)NC(=O)/C=C/CN(C)C unit_info=nM qualifying_sign== value_reported=44
molecule=Cc1cc(C(=O)N[C@@H](C)C[C@H]2CC[C@]3(CC2)OC(=O)NN=C3c2cc(OC(F)F)ccc2Br)[nH]n1 unit_info=nM qualifying_sign=< value_reported=10
